Target: hFXR (Homo sapiens)
Sequence (Q96RI1 1-486): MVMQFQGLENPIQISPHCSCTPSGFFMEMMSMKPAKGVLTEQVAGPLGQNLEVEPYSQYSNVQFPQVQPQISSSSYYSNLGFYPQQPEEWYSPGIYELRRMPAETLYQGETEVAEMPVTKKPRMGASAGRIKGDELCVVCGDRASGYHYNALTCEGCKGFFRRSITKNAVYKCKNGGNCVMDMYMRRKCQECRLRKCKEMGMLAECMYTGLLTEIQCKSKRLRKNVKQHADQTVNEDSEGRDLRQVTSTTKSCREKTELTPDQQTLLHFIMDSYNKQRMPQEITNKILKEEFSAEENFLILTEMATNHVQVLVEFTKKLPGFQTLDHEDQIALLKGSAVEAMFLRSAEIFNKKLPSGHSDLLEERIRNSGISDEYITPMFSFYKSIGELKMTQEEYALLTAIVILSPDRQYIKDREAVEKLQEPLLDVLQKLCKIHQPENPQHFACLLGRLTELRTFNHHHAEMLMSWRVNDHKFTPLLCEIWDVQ
Sequence (P19793 1-462 partner): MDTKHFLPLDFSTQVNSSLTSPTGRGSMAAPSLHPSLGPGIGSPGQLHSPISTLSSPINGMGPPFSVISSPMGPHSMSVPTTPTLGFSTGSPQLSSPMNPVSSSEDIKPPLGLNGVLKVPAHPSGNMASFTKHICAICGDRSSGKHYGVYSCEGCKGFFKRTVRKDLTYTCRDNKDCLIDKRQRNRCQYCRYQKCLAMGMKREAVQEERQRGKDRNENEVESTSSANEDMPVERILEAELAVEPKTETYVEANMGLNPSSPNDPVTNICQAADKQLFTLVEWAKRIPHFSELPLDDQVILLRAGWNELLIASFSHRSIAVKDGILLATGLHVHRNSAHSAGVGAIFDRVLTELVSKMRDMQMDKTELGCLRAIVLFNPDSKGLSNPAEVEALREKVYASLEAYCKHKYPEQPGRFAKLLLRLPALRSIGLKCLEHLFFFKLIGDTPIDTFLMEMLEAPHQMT
Experiment: In Vitro FXR Assay (TK): TK-ECRE-luc reporter in transfected CV-1 cells
Details: 18 hrs, luminescence, maximum efficacy of <25% of the Fexarmine control classified as '+'
Assignment: determine reported EC50 for the given compounds.

Query: Quick one: EC50 for COc1ccc([C@H]2CC[C@H](CN(c3cc(-c4coc(C5CC5)n4)ccn3)C(=O)[C@H]3CC[C@H](CNC(=O)C4CC(N(C)C)C4)CC3)CC2)nc1C (stereo partly drawn) ?
Reply: ≥ 1 µM

Query: Please do the same for "COc1ccc([C@H]2CC[C@H](CN(c3cccc(-c4cnn(C5CC5)c4)c3)C(=O)[C@H]3CC[C@H](OC(=O)N4CC(N(C)C(=O)OC(C)(C)C)C4)CC3)CC2)cc1C" as well.
Reply: ≤ 0.25 µM

Query: Please do the same for "COc1ccc([C@H]2CC[C@H](CN(c3cccc(-c4cnc(C(C)C)s4)c3)C(=O)[C@H]3CC[C@H](CC(=O)O)CC3)CC2)nc1C" as well.
Reply: ≤ 0.25 µM

---

Target: hFXR (Homo sapiens, UniProt Q96RI1)
Sequence (Q96RI1 1-486): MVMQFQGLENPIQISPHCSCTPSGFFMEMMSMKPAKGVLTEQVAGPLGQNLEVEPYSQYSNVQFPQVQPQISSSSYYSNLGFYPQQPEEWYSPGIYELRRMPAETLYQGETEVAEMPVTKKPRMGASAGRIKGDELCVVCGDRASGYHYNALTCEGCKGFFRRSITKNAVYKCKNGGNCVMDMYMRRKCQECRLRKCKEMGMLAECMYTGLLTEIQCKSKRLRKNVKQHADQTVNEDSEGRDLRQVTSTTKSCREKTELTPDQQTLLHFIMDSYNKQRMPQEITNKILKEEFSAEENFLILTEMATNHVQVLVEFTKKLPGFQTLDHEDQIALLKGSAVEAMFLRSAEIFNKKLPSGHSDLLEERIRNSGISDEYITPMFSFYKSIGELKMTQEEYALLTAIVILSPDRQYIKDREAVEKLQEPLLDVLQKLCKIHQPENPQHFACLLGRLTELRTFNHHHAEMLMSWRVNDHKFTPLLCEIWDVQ
Sequence (P19793 1-462 partner): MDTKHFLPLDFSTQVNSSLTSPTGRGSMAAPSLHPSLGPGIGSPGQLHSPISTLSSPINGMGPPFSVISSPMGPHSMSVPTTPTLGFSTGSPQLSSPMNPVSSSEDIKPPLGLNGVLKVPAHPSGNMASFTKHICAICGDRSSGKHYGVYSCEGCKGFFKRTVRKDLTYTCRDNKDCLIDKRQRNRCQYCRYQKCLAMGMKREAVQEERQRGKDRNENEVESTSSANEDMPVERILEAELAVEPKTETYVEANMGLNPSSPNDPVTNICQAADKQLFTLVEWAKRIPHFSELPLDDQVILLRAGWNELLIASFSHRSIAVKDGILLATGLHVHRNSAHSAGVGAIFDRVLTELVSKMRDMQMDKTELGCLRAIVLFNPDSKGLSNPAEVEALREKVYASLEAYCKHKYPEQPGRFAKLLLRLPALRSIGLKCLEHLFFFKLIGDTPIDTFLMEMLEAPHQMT
Assay: In Vitro FXR Assay (TK): TK-ECRE-luc reporter in transfected CV-1 cells
Conditions: 18 hrs, luminescence, maximum efficacy of <25% of the Fexarmine control classified as '+'
pEC50: −log10 of the molar value.
Property Measured: pEC50

Query: Quick one: pEC50 for "COc1ccc([C@H]2CC[C@H](CN(c3cccc(-c4cnn(C5CC5)c4)c3)C(=O)[C@H]3CC[C@H](c4noc(=O)[nH]4)CC3)CC2)cc1C" ?
Reply: ≥ 6.60

Query: Please do the same for "COc1ccc([C@H]2CC[C@H](CN(c3cc(-c4cnn(C(C)C)c4)ccn3)C(=O)[C@H]3CC[C@H](CC(=O)O)CC3)CC2)cc1C#N" as well.
Reply: ≥ 6.60

Query: Please do the same for "COc1ccc([C@H]2CC[C@H](CN(c3cc(-c4coc(C(C)C)n4)ccn3)C(=O)[C@H]3CC[C@H](OC(=O)N4CC(O)C4)CC3)CC2)nc1C" as well.
Reply: ≥ 6.60

Query: Please do the same for "COc1ccc([C@H]2CC[C@H](CN(c3cccc(-c4cnn(C5CC5)c4)c3)C(=O)[C@H]3CC[C@H](CC(=O)O)CC3)CC2)cc1C#N" as well.
Reply: ≥ 6.60

Query: Please do the same for "COc1ccc([C@H]2CC[C@H](CN(c3cccc(-c4cnc(C5CC5)s4)c3)C(=O)[C@H]3CC[C@H](OCCN(C)C)CC3)CC2)cc1C" as well.
Reply: 6.00 to 6.60

Query: Please do the same for "COc1ccc([C@H]2CC[C@H](CN(c3cc(-c4cnn(C(C)C)c4)ccn3)C(=O)[C@H]3CC[C@H](OC(=O)N4CCC4)CC3)CC2)cc1C#N" as well.
Reply: ≥ 6.60

Query: Please do the same for "COc1ccc([C@H]2CC[C@H](CN(c3cc(-c4cnn(C5CC5)c4)ccn3)C(=O)[C@H]3CC[C@H](CC(=O)O)CC3)CC2)nc1C" as well.
Reply: 6.00 to 6.60

Query: Please do the same for "COc1ccc([C@H]2CC[C@H](CN(c3cccc(-c4cnn(C5CC5)c4)c3)C(=O)[C@H]3CC[C@H](OC(=O)NCc4ncc[nH]4)CC3)CC2)cc1C" as well.
Reply: ≥ 6.60

Query: Please do the same for "COc1ccc([C@H]2CC[C@H](CN(c3cccc(-c4cnn(C(C)C)c4)c3)C(=O)[C@H]3CC[C@H](OC(=O)NCCO)CC3)CC2)cc1C#N" as well.
Reply: ≥ 6.60

Query: Please do the same for "CN(C)c1ccc([C@H]2CC[C@H](CN(c3cccc(-c4cnn(C5CC5)c4)c3)C(=O)[C@H]3CC[C@H](CC(=O)O)CC3)CC2)cn1" as well.
Reply: ≥ 6.60

Query: Please do the same for "CNC(=O)O[C@H]1CC[C@H](C(=O)N(C[C@H]2CC[C@H](c3ccc(OC)c(C)c3)CC2)c2cc(-c3coc(C4CC4)n3)ccn2)CC1" as well.
Reply: ≥ 6.60

Query: Please do the same for "COc1ccc(C23CCC(CN(c4cc(-c5coc(C6CC6)n5)ccn4)C(=O)[C@H]4CC[C@H](CC(=O)O)CC4)(CC2)CC3)cc1C" as well.
Reply: ≥ 6.60
